# target system: T1, HLA-A*24:02 molecule
# T1 construct: MHC class I molecule on C1R-A24 cells, endogenous peptide and b2m stripped at pH 3.3, purified b2m added back; also called product of an HLA-A*24:02 gene; allele A*24:02
# method notes: flow cytometry, C1R-A24 cells;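 further: Read-out was the amount of peptide–MHC complex on each cell, taken as the fluorescence intensity of a bound fluorescent antibody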
measure name: log10 Kd (M)

>  <binder>
LLNPNRQTI (synthetic 9-mer derived from CADM1) [peptide of SEQ ID NO: 23]

>  <log10 Kd (M)>
-6.22

$$$$
>  <binder>
YVYDPPTTI (synthetic 9-mer derived from CADM1) [peptide of SEQ ID NO: 2]

>  <log10 Kd (M)>
-6.23

$$$$

(I) LAITRKSFI (synthetic 9-mer derived from Fas) [peptide of SEQ ID NO: 46]
(II) CIDEHQWQL (synthetic 9-mer derived from EVC1) [peptide of SEQ ID NO: 28]
// compare measured log10 Kd (M), left I , right II , return larger Lab note: record the label of whichever item you select.
II

Data provenance: patent US20250236642A1
